Molecular target: integrin α4β1 (Jurkat cells) binding with recombinant human VCAM-1 (Homo sapiens, UniProt P05556+P13612)
Construct: cell strain Jurkat (ATCC TIB-152) of human T cells, known to express integrin α4β1; endogenous in cells; host or cells: Jurkat (ATCC TIB-152), human T cells
Sequence (P13612 34-1032): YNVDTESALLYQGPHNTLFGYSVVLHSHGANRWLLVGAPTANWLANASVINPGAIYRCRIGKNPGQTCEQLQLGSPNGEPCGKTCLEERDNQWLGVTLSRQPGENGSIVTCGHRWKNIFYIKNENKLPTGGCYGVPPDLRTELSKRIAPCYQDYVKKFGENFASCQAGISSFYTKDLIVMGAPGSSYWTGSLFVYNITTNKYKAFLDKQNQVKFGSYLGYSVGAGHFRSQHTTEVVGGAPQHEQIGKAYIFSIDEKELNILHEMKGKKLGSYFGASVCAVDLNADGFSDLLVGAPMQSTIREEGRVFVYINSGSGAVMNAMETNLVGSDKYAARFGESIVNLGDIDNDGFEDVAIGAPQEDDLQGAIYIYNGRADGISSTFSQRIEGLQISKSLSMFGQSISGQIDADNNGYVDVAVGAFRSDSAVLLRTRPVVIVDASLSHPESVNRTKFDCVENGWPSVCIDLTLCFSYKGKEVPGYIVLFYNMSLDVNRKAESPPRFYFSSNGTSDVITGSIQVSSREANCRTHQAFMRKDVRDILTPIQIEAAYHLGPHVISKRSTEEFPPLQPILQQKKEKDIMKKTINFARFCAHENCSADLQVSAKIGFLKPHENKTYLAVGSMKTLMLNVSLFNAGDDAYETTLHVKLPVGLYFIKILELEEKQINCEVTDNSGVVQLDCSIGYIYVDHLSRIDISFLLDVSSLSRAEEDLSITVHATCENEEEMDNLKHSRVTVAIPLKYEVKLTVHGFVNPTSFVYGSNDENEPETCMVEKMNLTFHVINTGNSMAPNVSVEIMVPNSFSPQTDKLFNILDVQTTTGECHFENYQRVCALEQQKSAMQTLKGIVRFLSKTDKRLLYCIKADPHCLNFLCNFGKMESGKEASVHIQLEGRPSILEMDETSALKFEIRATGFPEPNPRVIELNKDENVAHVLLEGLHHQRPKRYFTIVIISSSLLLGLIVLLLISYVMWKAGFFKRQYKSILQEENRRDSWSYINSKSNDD
Sequence (P05556 21-798): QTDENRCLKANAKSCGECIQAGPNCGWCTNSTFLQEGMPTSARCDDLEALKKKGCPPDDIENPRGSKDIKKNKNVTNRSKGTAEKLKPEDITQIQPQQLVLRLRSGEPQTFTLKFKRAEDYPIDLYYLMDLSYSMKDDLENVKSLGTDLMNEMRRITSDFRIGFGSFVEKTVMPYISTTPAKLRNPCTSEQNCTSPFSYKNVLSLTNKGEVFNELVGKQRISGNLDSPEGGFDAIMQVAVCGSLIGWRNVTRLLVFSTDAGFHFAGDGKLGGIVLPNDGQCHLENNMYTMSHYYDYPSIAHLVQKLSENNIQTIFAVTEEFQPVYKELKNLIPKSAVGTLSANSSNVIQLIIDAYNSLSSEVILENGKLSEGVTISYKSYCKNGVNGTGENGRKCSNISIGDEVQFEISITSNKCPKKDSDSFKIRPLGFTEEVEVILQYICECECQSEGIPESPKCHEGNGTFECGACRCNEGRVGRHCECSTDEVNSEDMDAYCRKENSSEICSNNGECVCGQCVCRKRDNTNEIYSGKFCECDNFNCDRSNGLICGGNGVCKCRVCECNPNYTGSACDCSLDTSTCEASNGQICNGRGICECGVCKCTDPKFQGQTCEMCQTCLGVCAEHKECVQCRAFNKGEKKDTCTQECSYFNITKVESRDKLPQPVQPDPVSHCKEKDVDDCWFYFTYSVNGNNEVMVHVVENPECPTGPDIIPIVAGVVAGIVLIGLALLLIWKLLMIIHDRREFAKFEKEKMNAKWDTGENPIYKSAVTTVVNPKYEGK
Experiment: VCAM antagonistic activity (VCAM-1/α4β1 binding assay), Jurkat cell adhesion
Format: cell-based
Details: read-out: VCAM/α 4 β 1 antagonistic activity to integrin (IC50)
Field: IC50. Provide a value for each of the compounds that follow.

Q: Returns the measured IC50 for the input compound. Input: Cc1ccc(NNC(=O)[C@H]2CC[C@H](C(=O)N[C@@H](Cc3ccc(OCc4c(Cl)cccc4Cl)cc3)C(=O)O)CC2)cc1
A: 1 to 5 µM

Q: Returns the measured IC50 for the input compound. Input: COc1cccc(NNC(=O)[C@H]2CC[C@H](C(=O)N[C@@H](Cc3ccc(OCc4c(Cl)cccc4Cl)cc3)C(=O)O)CC2)c1
A: 5 to 25 µM

Q: Returns the measured IC50 for the input compound. Input: O=C(O)[C@H](Cc1ccc(OCc2c(Cl)cccc2Cl)cc1)NC(=O)[C@H]1CC[C@H](C(=O)NCc2ccccc2)CC1
A: 25 to 50 µM

Q: Returns the measured IC50 for the input compound. Input: O=C(O)[C@H](Cc1ccc(OCc2c(Cl)cccc2Cl)cc1)NC(=O)[C@H]1CC[C@H](C(=O)NNc2ccc(OC(F)(F)F)cc2)CC1
A: 25 to 50 µM

Q: Returns the measured IC50 for the input compound. Input: O=C(O)[C@H](Cc1ccc(OCc2c(Cl)cccc2Cl)cc1)NC(=O)[C@H]1CC[C@H](C(=O)NNc2ccc(Br)cc2)CC1
A: 25 to 50 µM
